Origin of measurements: ChEMBL document CHEMBL1131380

Biological target: Protein kinase C delta type (Homo sapiens, UniProt Q05655)
Sequence (Q05655 whole entry): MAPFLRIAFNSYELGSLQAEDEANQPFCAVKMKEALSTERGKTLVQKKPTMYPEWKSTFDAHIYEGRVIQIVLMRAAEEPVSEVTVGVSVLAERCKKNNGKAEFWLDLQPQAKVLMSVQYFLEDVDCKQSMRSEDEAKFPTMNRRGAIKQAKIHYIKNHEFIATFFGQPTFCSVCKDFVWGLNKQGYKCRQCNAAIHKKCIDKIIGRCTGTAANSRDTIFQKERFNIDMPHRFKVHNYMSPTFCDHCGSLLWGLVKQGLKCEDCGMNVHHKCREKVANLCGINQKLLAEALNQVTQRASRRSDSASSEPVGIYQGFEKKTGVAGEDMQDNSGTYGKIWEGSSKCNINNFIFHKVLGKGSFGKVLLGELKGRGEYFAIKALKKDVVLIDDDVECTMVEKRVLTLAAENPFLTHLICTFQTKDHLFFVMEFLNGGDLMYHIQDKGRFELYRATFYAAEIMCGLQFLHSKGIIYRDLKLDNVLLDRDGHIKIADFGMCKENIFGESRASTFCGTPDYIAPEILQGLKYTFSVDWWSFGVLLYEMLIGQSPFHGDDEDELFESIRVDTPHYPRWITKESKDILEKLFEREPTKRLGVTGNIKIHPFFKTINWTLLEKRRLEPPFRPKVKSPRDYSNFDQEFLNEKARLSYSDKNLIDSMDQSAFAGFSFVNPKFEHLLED
Assay: Displacement of [3H]PDBu from recombinant Protein kinase C delta
Quantity: Ki (µM)

[[record]]
molecule = "CCCCCCCCCCc1ccc2c(c1)C[C@@H](CO)NC(=O)[C@H](C(C)C)N2C"
tested_system = "Protein kinase C delta type (Homo sapiens, UniProt Q05655)"
recorded_measurement = 0.032

[[record]]
molecule = "CC(C)[C@H]1C(=O)N[C@H](CO)Cc2cc3c(cc2N1C)C(C)(C)CCC3(C)C"
tested_system = "Protein kinase C delta type (Homo sapiens, UniProt Q05655)"
recorded_measurement = 5.1

[[record]]
molecule = "CC(C)[C@H]1C(=O)N[C@H](CO)Cc2ccccc2N1C"
tested_system = "Protein kinase C delta type (Homo sapiens, UniProt Q05655)"
recorded_measurement = 1.7

[[record]]
molecule = "CC(C)[C@H]1C(=O)N[C@H](CO)Cc2cc3c(cc2N1C)C1(CCCCC1)CCC3"
tested_system = "Protein kinase C delta type (Homo sapiens, UniProt Q05655)"
recorded_measurement = 0.019

[[record]]
molecule = "C=C[C@@]1(C)CC[C@](C)(C(C)C)c2cc3c4c(c[nH]c4c21)C[C@@H](CO)NC(=O)[C@H](C(C)C)N3C"
tested_system = "Protein kinase C delta type (Homo sapiens, UniProt Q05655)"
recorded_measurement = 0.00032

[[record]]
molecule = "CC(C)[C@H]1C(=O)N[C@H](CO)Cc2cc3c(cc2N1C)CCCC3(C)C"
tested_system = "Protein kinase C delta type (Homo sapiens, UniProt Q05655)"
recorded_measurement = 1.7

[[record]]
molecule = "CC(C)[C@H]1C(=O)N[C@H](CO)Cc2cc3c(cc2N1C)C1(CCC3)CCC(C)(C)CC1"
tested_system = "Protein kinase C delta type (Homo sapiens, UniProt Q05655)"
recorded_measurement = 0.014

[[record]]
molecule = "CCCCCCCCCCc1ccc2c(c1)N(C)[C@@H](C(C)C)C(=O)N[C@H](CO)C2"
tested_system = "Protein kinase C delta type (Homo sapiens, UniProt Q05655)"
recorded_measurement = 0.0059

[[record]]
molecule = "CC(C)[C@H]1C(=O)N[C@H](CO)Cc2cc3c(cc2N1C)C(C)(C)CCC3"
tested_system = "Protein kinase C delta type (Homo sapiens, UniProt Q05655)"
recorded_measurement = 0.065

[[record]]
molecule = "CCCCCCCCCCC1C(=O)N[C@H](CO)Cc2ccccc2N1C (stereo partly specified)"
tested_system = "Protein kinase C delta type (Homo sapiens, UniProt Q05655)"
recorded_measurement = 0.003

[[record]]
molecule = "CC(C)[C@H]1C(=O)N[C@H](CO)Cc2c[nH]c3cccc(c23)N1C"
tested_system = "Protein kinase C delta type (Homo sapiens, UniProt Q05655)"
recorded_measurement = 0.08

